System: DIPGX9 (diffuse intrinsic pontine glioma line)
Experiment description: growth inhibition (% activity, log2 RLU normalised to DMSO / staurosporine); higher = more growth inhibition
Measurement context: 33 µM
Below is a list of entries, each paired with its recorded growth inhibition value.

Molecule	growth inhibition / %
CNCC[C@H](Oc1cccc2ccccc12)c1cccs1	2.42
CSc1nc2cc(Cl)c(Oc3cccc(Cl)c3Cl)cc2[nH]1	0.647
COC(=O)Nc1nc2cc(Sc3ccccc3)ccc2[nH]1	9.42
O=c1n(CCCN2CCN(c3cccc(Cl)c3)CC2)nc2ccccn12	3.67
Cc1ccc(S(=O)(=O)NC(=O)NN2CCCCCC2)cc1	-1.05
CN1C2CCCC1CC(NC(=O)c1nn(C)c3ccccc13)C2 (stereo unspecified)	1.03
NCC(=O)CCC(=O)O	0.54
CCC(C)C1OC2(CCC1C)CC1CC(CC=C(C)C(OC3CC(OC)C(OC4CC(OC)C(O)C(C)O4)C(C)O3)C(C)C=CC=C3COC4C(O)C(C)=CC(C(=O)O1)C34O)O2 (stereo unspecified)	2.33
Cc1cccc(N(C)C(=S)Oc2ccc3ccccc3c2)c1	-2.01
C=C1[C@H](CO)[C@@H](O)C[C@@H]1n1cnc2c(=O)[nH]c(N)nc21	1.66
CCOC(=O)[C@H](CCc1ccccc1)N[C@@H](C)C(=O)N1Cc2ccccc2C[C@H]1C(=O)O	3.18
COc1cc2nc(N(C)CCCNC(=O)C3CCCO3)nc(N)c2cc1OC (stereo unspecified)	0.217
O=C1CCc2ccc(OCCCCN3CCN(c4cccc(Cl)c4Cl)CC3)cc2N1	4.55
CC[C@]1(O)C[C@@H]2CN(CCc3c([nH]c4ccccc34)[C@@](C(=O)OC)(c3cc4c(cc3OC)N(C)[C@H]3[C@@](O)(C(=O)OC)[C@H](OC(C)=O)[C@]5(CC)C=CCN6CC[C@]43[C@@H]65)C2)C1	22
COc1ccc2cc([C@H](C)C(=O)O)ccc2c1	0.193
CC(O)(P(=O)(O)O)P(=O)(O)O	-0.168
CCOC(=O)c1c(C)n(C)c2ccc(O)cc12	-1.16
COC(=O)/C=C/C(=O)OC	-0.334
COc1ccc2cc1Oc1ccc(cc1)C[C@H]1c3c(cc4c(c3Oc3cc5c(cc3OC)CCN(C)[C@@H]5C2)OCO4)CCN1C	1.36
Clc1ccc(CSC(Cn2ccnc2)c2ccc(Cl)cc2Cl)cc1 (stereo unspecified)	1.99
CC[C@@H]1/C=C(\C)C[C@H](C)C[C@H](OC)[C@H]2O[C@@](O)(C(=O)C(=O)N3CCCC[C@H]3C(=O)O[C@H](/C(C)=C/[C@@H]3CC[C@H](Cl)[C@H](OC)C3)[C@H](C)[C@@H](O)CC1=O)[C@H](C)C[C@@H]2OC	5.36
O=C1c2c(O)ccc(O)c2C(=O)c2c(NCCNCCO)ccc(NCCNCCO)c21	55.9
C#CCN[C@@H]1CCc2ccccc21	1.74
CCCCCCCN(CC)CCCC(O)c1ccc(NS(C)(=O)=O)cc1 (stereo unspecified)	1.97
OCCOCCN1CCN(C(c2ccccc2)c2ccc(Cl)cc2)CC1 (stereo unspecified)	0.403
NCCS(=O)(=O)O	0.788
CCOc1nc2cccc(C(=O)OC(C)OC(=O)OC3CCCCC3)c2n1Cc1ccc(-c2ccccc2-c2nn[nH]n2)cc1 (stereo unspecified)	-0.119
Fc1ccc([C@@H]2CCNC[C@H]2COc2ccc3c(c2)OCO3)cc1	-0.123
Clc1ccc(CCC(Cn2ccnc2)Sc2c(Cl)cccc2Cl)cc1 (stereo unspecified)	4.57
CN1C(C(=O)Nc2ccccn2)=C(O)c2sc(Cl)cc2S1(=O)=O	0.761
O.O=[Si]=O.O=[Si]=O.O=[Si]=O.O=[Si]=O.[O]=[Mg].[O]=[Mg].[O]=[Mg]	0.668
Cc1ncc(C[n+]2csc(CCO)c2C)c(N)n1	0.746
CNNCc1ccc(C(=O)NC(C)C)cc1	1.95
CCC(=O)NCC[C@@H]1CCc2ccc3c(c21)CCO3	0.325
O=C(C1CCCCC1)N1CC(=O)N2CCc3ccccc3C2C1 (stereo unspecified)	1.99
CC[C@@H](CO)NCCN[C@@H](CC)CO	-2.09
CN(C(=O)CN(CCO)CC(=O)N(C)C(C)(C)Cc1ccccc1)C(C)(C)Cc1ccccc1	4.47
CCCCC[C@H](O)/C=C/[C@H]1[C@H](O)CC(=O)[C@@H]1CCCCCCC(=O)O	1.68
C=CC[N+]1([C@H]2C[C@H]3[C@@H]4CC[C@H]5C[C@H](O)[C@@H](N6CCOCC6)C[C@]5(C)[C@H]4CC[C@]3(C)[C@H]2OC(C)=O)CCCC1	0.151
C[C@H](CS)C(=O)N1CCC[C@H]1C(=O)O	1.57
N[C@@H](Cc1cc(I)c(Oc2ccc(O)c(I)c2)c(I)c1)C(=O)O	2.64
